Provide the recorded Kd for the entries that follow.
- TARGET_DESC: T1, rat serum albumin (rat, UniProt P02770 25-608)
- T1 construct: also called RSA
- PROTOCOL_DESCRIPTION: affinity (KD) for rat serum albumin; method not stated in the table (BIACORE SPR in Example 1)
Write the answer as a number in nM, unit excluded.

Exercise: Can you look up the measured Kd of DOM7r-16 (other) VL: DIQMTQSPSSLSASVGDRVTITCRASQKIYKNLRWYQQKPGKAPKLLIYNSSILQSGVPSRFSGSGSGTDFTLTISSLQPEDFATYYCQQRYLSPYTFGQGTKVEIKR for me?
Solution: 1000

Exercise: Again, but for DOM7r-3 (other) VL: DIQMTQSPSSLSASVGDRVTITCRASQYIGRYLRWYQQKPGKAPKLLIYDSSVLQSGVPSRFSGSGSGTDFTLTISSLQPEDFATYYCQQRYMQPFTFGQGTKVEIKR
Solution: 12

Exercise: Now this one: DOM7r-31 (other) VH: EVQLLESGGGLVQPGGSLRLSCTASGFTFRHYRMGWVRQAPGKGLEWVSWIRPDGTFTYYADSVKGRFTISRDNSKNTLYLQMNSLRAEDTAVYYCAKSYMGDRFDYWGQGTLVTVSS
Solution: 5000

Exercise: Also need DOM7r-27 (other) VH: EVQLLESGGGLVQPGGSLRLSCAASGFTFWPYTMSWVRQAPGKGLEWVSTISPFGSTTYYADSVKGRFTISRDNSKNTLYLQMNSLRAEDTAVYYCAKSDVLKTGLDGFDYWGQGTLVTVSS , thanks.
Solution: 250
